These entries and their values trace back to patent US11168102B1.

Listed here: items and their measured Kd.
target: SOS1 catalytic domain (residues 564-1049) (Homo sapiens (Human), UniProt Q07889)
Sequence (Q07889 564-1049): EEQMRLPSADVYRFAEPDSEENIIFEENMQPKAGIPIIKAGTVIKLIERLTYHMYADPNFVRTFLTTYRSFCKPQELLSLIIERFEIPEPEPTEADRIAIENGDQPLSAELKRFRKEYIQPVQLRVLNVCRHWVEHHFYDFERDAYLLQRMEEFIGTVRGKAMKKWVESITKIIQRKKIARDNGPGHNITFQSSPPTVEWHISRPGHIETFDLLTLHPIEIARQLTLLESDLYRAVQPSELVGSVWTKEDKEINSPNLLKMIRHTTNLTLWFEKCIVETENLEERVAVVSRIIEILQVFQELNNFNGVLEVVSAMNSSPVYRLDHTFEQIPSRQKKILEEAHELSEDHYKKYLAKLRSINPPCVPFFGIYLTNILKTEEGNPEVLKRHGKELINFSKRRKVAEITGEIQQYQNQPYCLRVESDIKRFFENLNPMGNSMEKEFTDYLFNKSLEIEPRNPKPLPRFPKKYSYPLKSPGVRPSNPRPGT
Please answer using a numeric value trailed by its unit.

Example cases with answers are listed next.
>  <compound>
C[C@@H](Nc1ncnc2c1cc(C1CCS(=O)(=O)C1)c(=O)n2C)c1cccc(C(F)F)c1F (stereo partly shown)

>  <result>
486 nM

$$$$
>  <compound>
C[C@@H](Nc1ncnc2c1cc(C(=O)N1CC(O)(C(F)(F)F)C1)c(=O)n2C)c1cccc(C(F)F)c1F

>  <result>
420 nM

$$$$
>  <compound>
C[C@@H](Nc1ncnc2c1cc(-c1ccc3nonc3c1)c(=O)n2C)c1cccc(C(F)F)c1F

>  <result>
336 nM

$$$$

# evaluate next
Field Kd (entry C[C@@H](Nc1ncnc2c1cc(C1(F)CCS(=O)(=NC3CC3)CC1)c(=O)n2C)c1cccc(C(F)F)c1F (single isomer, unassigned) ) reads 9.19 nM

###

Observed log10 of IC50, system UniProt:Q07889.
The base-10 logarithm of IC50, taken with IC50 in nM, is what appears here.

>  <molecule>
CC(=O)N1CCC=C(c2cc3c(N[C@H](C)c4cccc(C(F)F)c4F)ncnc3n(C)c2=O)C1

>  <log10 of IC50>
1.72

$$$$
>  <molecule>
C[C@@H](Nc1ncnc2c1cc(C1(F)CCS(=O)(=NC3CC3)CC1)c(=O)n2C)c1cccc(C(F)F)c1F (single isomer, unassigned)

>  <log10 of IC50>
0.88

$$$$
>  <molecule>
C[C@@H](Nc1ncnc2c1cc(C(=O)N1CCN(C)c3ncccc31)c(=O)n2C)c1cccc(C(F)F)c1F

>  <log10 of IC50>
2.25

$$$$
>  <molecule>
C[C@@H](Nc1ncnc2c1cc(C1=CCNCC1)c(=O)n2C)c1cccc(C(F)(F)F)c1

>  <log10 of IC50>
1.38

$$$$
>  <molecule>
C[C@@H](Nc1ncnc2c1cc(C(=O)N1C3CCC1COC3)c(=O)n2C)c1cccc(C(F)F)c1F

>  <log10 of IC50>
2.03

$$$$

Looking up COC1(c2cc3c(N[C@H](C)c4cccc(C(F)F)c4F)nc(C)nc3n(C)c2=O)CCN(C(C)=O)CC1 , I found its log10 of IC50 recorded as 0.68

Entry C[C@@H](Nc1ncnc2c1cc(C1CCS(=O)(=O)CC1)c(=O)n2C)c1cccc(C(F)F)c1F ; log10 of IC50 = 1.11

###

Collected pIC50 values appear next to each entry.
biological target: SOS1 nucleotide exchange of wild-type KRAS (Homo sapiens (Human), UniProt Q07889)
Sequence (Q07889 564-1049): as above
Scale: negative log10 of molar concentration, which is what pIC50 denotes.

Take a look at these entries with their results.
>  <mol>
C[C@@H](Nc1ncnc2c1cc(C1CCN(CC(F)(F)F)CC1)c(=O)n2C)c1cccc(C(F)F)c1F

>  <pIC50>
7.11

$$$$
>  <mol>
CC(=O)N1CC=C(c2cc3c(N[C@H](C)c4cccc(C(C)(F)F)c4)ncnc3n(C)c2=O)CC1

>  <pIC50>
7.47

$$$$
>  <mol>
Cc1nc(N[C@H](C)c2cccc(C(F)F)c2F)c2cc(C3CCN(C4COC4)CC3)c(=O)n(C)c2n1

>  <pIC50>
7.09

$$$$
>  <mol>
C[C@@H](Nc1ncnc2c1cc(C1CCOCC1)c(=O)n2C)c1cccc(C(F)F)c1F

>  <pIC50>
7.34

$$$$
>  <mol>
C[C@@H](Nc1ncnc2c1cc(C(=O)N1CCCOCC1)c(=O)n2C)c1cccc(C(F)F)c1F

>  <pIC50>
6.91

$$$$

Okay, next one:
Log: SOS1 nucleotide exchange of wild-type KRAS (Homo sapiens (Human), UniProt Q07889), compound C[C@@H](Nc1ncnc2c1cc(C(=O)N1CCS(=O)(=O)CC1)c(=O)n2C)c1cccc(C(F)F)c1F , pIC50 = 6.81
